- assayed-target: T1, recombinant human trimeric ARG2 enzyme (construct not given) (human, UniProt P78540 23-354)
- T1 sequence (looked up): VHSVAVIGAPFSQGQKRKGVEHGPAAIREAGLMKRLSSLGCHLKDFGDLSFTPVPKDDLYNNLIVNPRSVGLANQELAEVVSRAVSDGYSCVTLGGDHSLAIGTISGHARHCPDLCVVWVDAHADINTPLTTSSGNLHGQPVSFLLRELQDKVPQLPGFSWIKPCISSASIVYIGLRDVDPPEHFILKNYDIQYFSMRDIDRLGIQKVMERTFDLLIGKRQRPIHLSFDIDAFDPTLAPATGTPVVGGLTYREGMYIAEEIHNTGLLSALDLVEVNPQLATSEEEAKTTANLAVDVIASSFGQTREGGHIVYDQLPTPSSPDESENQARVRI
- measurement-description: cell-based or functional assay
observation-type: EC50, In Presence of rhARG2 (T cell proliferation) (µM)

- binder: "C0021065 recombinant human IgG1 (antibody, V domains shown) VH: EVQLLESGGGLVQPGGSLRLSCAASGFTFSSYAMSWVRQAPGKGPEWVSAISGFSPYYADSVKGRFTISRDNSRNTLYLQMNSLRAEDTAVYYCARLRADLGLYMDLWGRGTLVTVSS VL: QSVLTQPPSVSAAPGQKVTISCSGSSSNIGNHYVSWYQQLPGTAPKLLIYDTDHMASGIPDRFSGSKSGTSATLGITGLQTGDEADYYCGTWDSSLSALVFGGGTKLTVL"
  assay-value: 0.136
- binder: "C0021139 recombinant human IgG1 (antibody, V domains shown) VH: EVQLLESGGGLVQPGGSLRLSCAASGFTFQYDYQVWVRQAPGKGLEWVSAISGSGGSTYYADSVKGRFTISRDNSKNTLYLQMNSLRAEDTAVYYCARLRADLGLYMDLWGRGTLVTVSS VL: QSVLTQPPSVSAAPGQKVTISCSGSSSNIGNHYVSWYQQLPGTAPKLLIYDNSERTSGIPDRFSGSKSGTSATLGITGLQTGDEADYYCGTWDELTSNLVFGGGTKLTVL"
  assay-value: 0.111
